Target: T1, C-terminal domain-deleted human Regnase-1 (amino acids 1 to 546) with N-terminal FLAG tag and C-terminal BirA … (human, UniProt Q5D1E8 1-546)
T1 sequence: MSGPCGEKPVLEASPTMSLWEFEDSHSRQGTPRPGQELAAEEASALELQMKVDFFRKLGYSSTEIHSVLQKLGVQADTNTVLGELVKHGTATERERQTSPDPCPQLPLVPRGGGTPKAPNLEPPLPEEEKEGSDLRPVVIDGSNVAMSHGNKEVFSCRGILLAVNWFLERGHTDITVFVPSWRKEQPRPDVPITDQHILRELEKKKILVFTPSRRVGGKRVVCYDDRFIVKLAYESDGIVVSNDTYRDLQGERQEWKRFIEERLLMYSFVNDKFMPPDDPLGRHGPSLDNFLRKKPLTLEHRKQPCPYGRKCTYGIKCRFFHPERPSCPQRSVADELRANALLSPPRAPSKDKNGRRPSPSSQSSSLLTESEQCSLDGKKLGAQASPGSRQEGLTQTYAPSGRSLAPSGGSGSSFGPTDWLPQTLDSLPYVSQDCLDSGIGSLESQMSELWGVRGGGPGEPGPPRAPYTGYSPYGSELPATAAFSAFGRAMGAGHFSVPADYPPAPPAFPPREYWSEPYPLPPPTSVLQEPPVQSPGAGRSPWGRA
Experiment: cell-based or functional assay
REPORTED PROPERTY: 50% inhibition concentration, Regnase-1 phosphorylation by TBK1 (AlphaScreen) (µM)
The reply should contain only the number, in µM.

Which 50% inhibition concentration, Regnase-1 phosphorylation by TBK1 (AlphaScreen) reading was recorded for the binder XRYAVYQWIYPD (HELM PEPTIDE1{[meA].R.Y.A.V.Y.Q.W.I.Y.P.D.[C1CCN([*:1])C1]}$PEPTIDE1,PEPTIDE1,1:R1-12:R3$$$V2.0; SMILES CC[C@H](C)[C@@H]1NC(=O)[C@H](Cc2c[nH]c3ccccc23)NC(=O)[C@H](CCC(N)=O)NC(=O)[C@H](Cc2ccc(O)cc2)NC(=O)[C@H](C(C)C)NC(=O)[C@H](C)NC(=O)[C@H](Cc2ccc(O)cc2)NC(=O)[C@H](CCCNC(=N)N)NC(=O)[C@H](C)N(C)C(=O)C[C@@H](C(=O)N2CCCC2)NC(=O)[C@@H]2CCCN2C(=O)[C@H](Cc2ccc(O)cc2)NC1=O) [PP12] ?
22.5
